test system: KM12 colon; assay: NCI tumour cell line growth inhibition, 48 h; in the data active = GI50 below about 0.43 µM; inactive = the rest
// classify into active, inactive

Example entries and their recorded answers appear below.
- O=C(Oc1ccc(Cl)cc1)c1ccccc1Nc1ccnc(C(F)(F)F)c1: inactive
- Nc1ccc(C2=NNC(=O)Cc3cc4c(cc32)OCCO4)cc1Cl: inactive
- Nc1n[nH]c2cccc(C#Cc3cccc(C(=O)Nc4ccc(CN5CCOCC5)c(C(F)(F)F)c4)c3)c12: inactive

As a next step, examine the molecule that follows.
Q: What was the test verdict on "CCC(=C/[C@H](C)C/C=C/C(C)=C/[C@@H](C)C(=O)[C@@H](C)[C@H](O)[C@@H](C)CC)/C=C/[C@H]1OC(=O)C=C[C@@H]1C" ?
Result: active

###

Measured TGI accompanies every entry in the list below.
tested on: LOX IMVI melanoma; assay: NCI tumour cell line growth inhibition, 48 h
Your answer is read as µM, so omit the unit and give the number.

• C=CC1(CC/C(=C\[N+](=O)[O-])c2ccc(OC)c(OC)c2)OCC(C)(C)CO1 = 55.8

Please look at the following molecule next.
Q: # value lookup — system LOX IMVI melanoma, readout TGI, item "S=C(N/N=C(/c1ccccc1)c1ccccn1)N(Cc1ccccn1)Cc1ccccn1"
Result: 1.74

###

system: SNB-75 CNS; assay: NCI tumour cell line growth inhibition, 48 h; in the data active = GI50 below about 0.43 µM; inactive = the rest
Just give me one of these, please: y = active, n = inactive

Illustrative cases are given below, each with its answer.
• COCCOc1ccc(-c2nc3ccc(-c4nc5ccc(N6CCN(C)CC6)cc5[nH]4)cc3[nH]2)cc1 = n
• CCOC(=O)C1=C(C)N(c2ccc(F)cc2F)[C@]2(C#N)C(O)=C(Cl)C(Cl)=C(O)[C@]12C#N = n
• COc1cccc(C(=O)NC(c2ccc(C)cc2)c2cc(Cl)c3cccnc3c2O)c1 (stereo unspecified) = y
• C=C1C(=O)O[C@H]2[C@H]1CC/C(COC(=O)NCc1ccc(Cn3c(=O)sn(-c4ccc(OC)cc4)c3=O)cc1)=C\CC[C@@]1(C)O[C@@H]21 = n
• COc1ccc(/C=N/NC(=O)c2cccc3cc[nH]c23)cc1O = y

Q: Tell me the recorded outcome of this test for "CN(C)c1cc(NN=C(c2ccc(O)cc2)c2ccc(O)cc2)c([N+](=O)[O-])cc1[N+](=O)[O-]" .
Result: n

Q: Can you look up the reported call for "N#CC(C#N)=C/C=C(\Sc1nc2ccccc2s1)c1ccc(Cl)cc1" for me?
Result: n

Q: Assay outcome for "O=C(CCCSc1nc(-c2ccccc2)cc(-c2ccccc2)n1)NO" : what was it?
Result: n

###

Form field: TGI (one value per entry).
test system: OVCAR-4 ovarian; experiment: NCI tumour cell line growth inhibition, 48 h

The examples below pair each entry with its known result.
- COc1ccc(/C=c2\sc3n(c2=O)CCN=3)cc1: > 100 µM
- Cc1csc(-c2nnc(Nc3ccc(Oc4ncccc4-c4ccnc(N)n4)cc3)c3ccccc23)c1: > 100 µM
- Nn1c(Nc2ccc(S(=O)(=O)Nc3ncccn3)cc2)nnc(/C=C/c2c(O)ccc3ccccc23)c1=O: > 100 µM
- Nc1n[nH]c2cccc(C#Cc3cccc(C(=O)Nc4ccc(CN5CCOCC5)c(C(F)(F)F)c4)c3)c12: 6.88 µM
- O=C(CCCSc1nc(-c2ccccc2)cc(-c2ccccc2)n1)NO: 14.9 µM
- O=S(=O)(c1ccccc1)c1cccc2c1NCCC2: > 100 µM

Q: Enter reported TGI observed with OVCAR-4 ovarian for "O=CNc1ccc2c(c1)C(=O)c1ccccc1-2"
Result: > 100 µM

Q: Short answer please: TGI, OVCAR-4 ovarian, entry "Cc1cc(-c2nc3ccc(F)cc3s2)ccc1NC(=O)[C@H](C)N"
Result: 24.4 µM

Q: What value of TGI on OVCAR-4 ovarian does "Nc1ncnc2c1[nH]c(=O)n2-c1ccccc1" have?
Result: > 100 µM

Q: Request - read-out TGI | tested on OVCAR-4 ovarian | molecule "Cc1ccc(/C=C/C(=O)c2cccc3ccccc23)cc1"
Result: 28 µM

Q: Request - read-out TGI | tested on OVCAR-4 ovarian | molecule "c1ccc(NCn2cnc3ccccc32)cc1"
Result: > 100 µM

###

Listed below: TGI values for each entry.
system: A549 NSCLC; assay: NCI tumour cell line growth inhibition, 48 h

Below, 10 compounds whose answers are already recorded.
* CCCCCC1=CC(=O)C1(Cl)Cl | 71.5 µM
* Cc1oc2c(cc(O)c3cc(O)ccc32)c2cccc1-2 | > 100 µM
* Cc1ccc(-c2csc(=Nc3ccccc3)n2NC(=O)c2ccncc2)cc1 | > 100 µM
* Cc1ccc(/C=C/C(=O)c2cccc3ccccc23)cc1 | 43.2 µM
* O=C(/C(=C/c1ccc([N+](=O)[O-])cc1)SCc1ccccc1)c1ccc(Cl)cc1 | 32.2 µM
* CCCCCCCCCCCCC(O)c1ccc(C#CCCCCCCCCCO)o1 (stereo not drawn) | 32.9 µM
* COc1nncc2[nH]c(-c3ccccc3)cc12 | > 100 µM
* Nc1ccc(C2=NNC(=O)Cc3cc4c(cc32)OCCO4)cc1Cl | > 50 µM
* O=C1c2cc3c(cc2-c2c1c1ccc(F)cc1c(=O)n2C[C@H](O)[C@@H](O)[C@H](O)CO)OCO3 | > 100 µM
* CN(C)CCNS(=O)(=O)c1ccc(N)cc1 | > 100 µM

Q: Requested read-out: TGI. Entry: "Cc1cc2c(C)[nH]nc2c(C(=O)O)c1C"
Result: > 100 µM

Q: Given the compound O=C1CCCCC1CN1CCCCC1 (stereo not drawn) , what is its reported TGI?
Result: > 100 µM

Q: Need TGI of "O=C(N/N=C/c1ccc(Cl)cc1)c1c(Cl)c(Cl)c(Cl)c(Cl)c1-c1nc2ccccc2[nH]1" , thanks.
Result: > 100 µM

Q: Give the measured TGI of "O=c1ccc2ccccc2cc1[O-].O=c1ccc2ccccc2cc1[O-].[O]=[U+2]=[O]" .
Result: 56 µM

###

Listing of recorded TGI by entry.
test system: EKVX NSCLC; experiment: NCI tumour cell line growth inhibition, 48 h

- CCCCOC(=O)Nc1ccc(S(=O)(=O)Nc2ccccc2Cl)cc1: 57 µM

Q: Suppose we examine the molecule COc1cccc(C2SC(N)=Nc3c2c(C)nn3C(=O)c2ccccc2O)c1 (stereo unspecified) ; what TGI value has been reported?
Result: > 10 µM

Q: Which TGI is reported for this molecule? "Oc1[nH]c2ccccc2c1N=Nc1nc(-c2ccc(Br)cc2)cs1"
Result: 30.4 µM

Q: Suppose we examine the molecule "CC(C)(C)c1cc2c(O)c3cccc4c(=O)c5cccc6c5-c(c34)c2c(c1)c6=O" ; what TGI value has been reported?
Result: > 100 µM

###

test system: CAKI-1 renal; assay: NCI tumour cell line growth inhibition, 48 h
quantity.measured: TGI

These recorded examples may help you get a feel for the data.
• O=C(CCCSc1nc(-c2ccccc2)cc(-c2ccccc2)n1)NO = 6.46 µM
• CC(=O)N(C(=O)CC(=O)N1N=C(c2ccccc2)C(N=Nc2ccccc2[N+](=O)[O-])C1=O)c1ccc(Cl)cc1 (stereo not given) = > 10 µM
• O=C1CN(c2cccc(Cl)c2)C(=O)CN1CCN1CC(=O)N(c2cccc(Cl)c2)CC1=O = > 100 µM
• CCC(=O)NC(Nc1cc(C)on1)(C(F)(F)F)C(F)(F)F = > 100 µM
• N[C@@H]1CCCC[C@@H]1N.O=P([O-])([O-])CN(CCN(CP(=O)([O-])[O-])CP(=O)([O-])[O-])CP(=O)([O-])[O-].[Pt+2] = > 25 µM

Q: # input compound: "C=C1CCN2CC[C@@H](OC(=O)/C(C)=C\C)[C@@H]12" ; wanted: its TGI
Result: > 100 µM

Q: Quick check: TGI of "Cc1ccc(/C=C/C(=O)CCN(C)C)cc1" ?
Result: 26.8 µM

Q: State the recorded TGI for this entry: "Cc1csc(-c2nnc(Nc3ccc(Oc4ncccc4-c4ccnc(N)n4)cc3)c3ccccc23)c1"
Result: > 100 µM

Q: Fill in: TGI of "O=C(/C=C/c1ccc2c(c1)OCO2)c1ccc(O)cc1" is ___
Result: 28.7 µM

Q: Entry under review: "O=C(/C=C/c1ccc(O)cc1)c1ccc(O)cc1" . Reported TGI?
Result: 37.9 µM

###

tested on: MALME-3M melanoma; assay: NCI tumour cell line growth inhibition, 48 h
Examples of molecules with documented GI50 follow.

Worked examples follow.
- N#Cc1c[nH]n2c(N=Nc3ccc(Cl)cc3)c(O)nc12: 41.6 µM
- C=C1C(=O)O[C@H]2[C@H]1CC/C(COC(=O)NCc1ccc(Cn3c(=O)sn(-c4ccc(OC)cc4)c3=O)cc1)=C\CC[C@@]1(C)O[C@@H]21: 1.81 µM
- COc1cccc(C(=O)NC(c2ccc(C)cc2)c2cc(Cl)c3cccnc3c2O)c1 (centres undefined): 1.42 µM
- COc1cccc(-c2nc(-c3ccc(NC(=O)OC(C)C)cc3)[nH]c2-c2ccnc(Br)c2)c1: 2.23 µM
- COc1cc(-c2ccc3cc(OC)c(OC)c(OC)c3c2)cc(OC)c1OC: 8.75 µM
- c1ccc(Sc2ncnc3ccccc23)cc1: 10.8 µM

Q: Returns the measured GI50 for the input molecule. Input: "COc1ccc(/C=N/NC(=O)c2cccc3cc[nH]c23)cc1O"
Result: 1.96 µM

Q: I'd like to know its GI50. The molecule in question is "COc1ccc(CN2C(=O)/C(=C\c3cc(OC)c(OC)c(OC)c3)c3ccccc32)cc1"
Result: 0.562 µM

Q: Fill in the blank: the reported GI50 of "CCOC(=O)C1=C(C)N(c2ccc(F)cc2F)[C@]2(C#N)C(O)=C(Cl)C(Cl)=C(O)[C@]12C#N" is ____.
Result: > 100 µM
